target: human kinase Mps-1 (Homo sapiens, UniProt P33981); construct: N-terminally GST-tagged human full length recombinant Mps-1 kinase; GST (N); test: Mps-1 kinase assay (TR-FRET); settings: N-terminally GST-tagged human full length recombinant Mps-1; 10 μM ATP; 1 μM peptide substrate; 15 min pre-incubation; 60 min at 22° C.
Sequence (P33981 whole entry): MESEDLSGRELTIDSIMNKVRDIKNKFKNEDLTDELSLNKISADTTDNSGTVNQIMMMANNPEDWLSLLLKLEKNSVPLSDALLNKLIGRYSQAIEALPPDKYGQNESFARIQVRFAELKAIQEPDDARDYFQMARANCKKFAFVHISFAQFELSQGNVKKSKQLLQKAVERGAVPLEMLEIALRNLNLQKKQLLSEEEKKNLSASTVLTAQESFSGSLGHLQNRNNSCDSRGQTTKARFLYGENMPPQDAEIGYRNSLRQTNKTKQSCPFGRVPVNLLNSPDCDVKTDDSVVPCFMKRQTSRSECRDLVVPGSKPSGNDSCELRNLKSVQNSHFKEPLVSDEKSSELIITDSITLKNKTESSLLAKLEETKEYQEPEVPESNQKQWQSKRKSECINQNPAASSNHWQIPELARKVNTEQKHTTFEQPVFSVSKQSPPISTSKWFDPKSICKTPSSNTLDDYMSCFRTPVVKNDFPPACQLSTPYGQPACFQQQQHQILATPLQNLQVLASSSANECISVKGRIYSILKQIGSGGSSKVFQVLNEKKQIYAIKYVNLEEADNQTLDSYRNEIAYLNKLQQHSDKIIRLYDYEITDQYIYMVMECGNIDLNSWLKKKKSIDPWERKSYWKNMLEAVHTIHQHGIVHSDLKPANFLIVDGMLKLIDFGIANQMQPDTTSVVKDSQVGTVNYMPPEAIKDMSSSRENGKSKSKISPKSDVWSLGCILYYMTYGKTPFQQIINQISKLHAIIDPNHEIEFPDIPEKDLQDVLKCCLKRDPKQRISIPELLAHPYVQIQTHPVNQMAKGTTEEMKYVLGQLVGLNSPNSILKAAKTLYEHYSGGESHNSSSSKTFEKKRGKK

Compound: CC(C)CNc1nc(-c2ccc(C#N)cc2)cn2c(-c3ccc(C(=O)NC4CC4)cc3)cnc12 [Example 1-73]
Assayed target: human kinase Mps-1 (Homo sapiens, UniProt P33981)
IC50 (nM): 2.1
--
Compound: CN(C)CCCCNc1nc(-c2ccccc2)cn2c(-c3ccc(C(=O)NC4CC4)cc3)cnc12 [Example 2-38]
Assayed target: human kinase Mps-1 (Homo sapiens, UniProt P33981)
IC50 (nM): 13.2
--
Compound: CC(C)(O)CNc1nc(-c2ccccc2)cn2c(-c3ccc(C(=O)NC4CC4)cc3)cnc12 [Example 1-125]
Assayed target: human kinase Mps-1 (Homo sapiens, UniProt P33981)
IC50 (nM): 1.1
--
Compound: Cc1cc(-c2cnc3c(NCC(C)(C)O)nc(-c4ccc(F)cc4)cn23)ccc1C(=O)NC1CC1 [Example 1-136]
Assayed target: human kinase Mps-1 (Homo sapiens, UniProt P33981)
IC50 (nM): 7.9
